Tested on: PRMT1 (protein arginine N-methyltransferase 1)
Experiment: PRMT1 binders on small-molecule microarrays, primary screen, biochemical, small-molecule microarray, 635 nm fluorescence (AID 1088)
Details: small-molecule microarray binding, higher = more signal
Each entry gets label 0 if its composite z-score stays under 1, and label 1 if its composite z-score is 1 or above.

Take a look at these entries with their results.
Compound	Target Desc	Assigned Class
CC(C)CON=C1C[C@@H](O)[C@@H](O)[C@@H]2[C@@H]3C(=O)N(Cc4ccc5c(c4)OCO5)C(=O)[C@@H]3CC[C@H]12	PRMT1 (protein arginine N-methyltransferase 1)	label 1
CCCNC(=O)OC[C@H]1O[C@H](CCON=C(C)CCN2CCCc3nc(C)c(C)cc32)C=C[C@@H]1Oc1ccc(OC)cc1	PRMT1 (protein arginine N-methyltransferase 1)	label 1
CC(C)[C@@H](OCc1ccccc1)[C@H](C)C=NOC[C@@H](O)COCc1ccco1	PRMT1 (protein arginine N-methyltransferase 1)	label 0
O=C1[C@H]2[C@H]3[C@H](O)[C@H](O)CC(=NOCc4ccccc4)[C@@H]3CC[C@H]2C(=O)N1Cc1ccc2c(c1)OCO2	PRMT1 (protein arginine N-methyltransferase 1)	label 0
COC(=O)CC=C[C@H](C)[C@@H](OCc1cccc(Br)c1)[C@@H](C)[C@H](OC)C1CCCCC1	PRMT1 (protein arginine N-methyltransferase 1)	label 0
CCc1cc2c(nc1CC)CCN(CCC(C)=NO[C@H](C)c1cn([C@H](CO)Cc3ccccc3)nn1)C2	PRMT1 (protein arginine N-methyltransferase 1)	label 1
CC(C)CON=C1C[C@@H](O)[C@@H](O)[C@@H]2[C@@H]3C(=O)N(c4ccc(F)cc4F)C(=O)[C@@H]3CC[C@H]12	PRMT1 (protein arginine N-methyltransferase 1)	label 1
O=C(NN=C1C[C@@H](O)[C@@H](O)[C@@H]2[C@@H]3C(=O)N(C4CCCCC4)C(=O)[C@@H]3CC[C@H]12)OCc1ccccc1	PRMT1 (protein arginine N-methyltransferase 1)	label 0
C#CCCCON=C1C[C@@H](O)[C@@H](O)[C@@H]2[C@@H]3C(=O)N(Cc4ccccc4)C(=O)[C@@H]3CC[C@@H]12	PRMT1 (protein arginine N-methyltransferase 1)	label 0
COC(=O)CC=C[C@@H](C)[C@@H](C=NO[C@@H](C)c1cn([C@H](CO)Cc2ccccc2)nn1)NS(=O)(=O)c1ccc(C)cc1	PRMT1 (protein arginine N-methyltransferase 1)	label 0

# input # check: composite z-score of C=CC[C@@H]1C=C[C@H](ON=C(C)CCC(=O)OC[C@H]2O[C@H](c3ccccc3)C=C[C@@H]2Oc2ccc(OC)cc2)[C@@H](CO)O1 is greater than or equal to 1
# output label 0

# input // inclusive: composite z-score at least 1? input: CC(C)=CCCC(C)=CCON=C1C[C@@H](O)[C@@H](O)[C@@H]2[C@@H]3C(=O)N(Cc4ccccc4)C(=O)[C@@H]3CC[C@H]12
# output label 1

# input Entry CC(CCN1CCCCc2nc(C)c(C)cc21)=NOC[C@@H](O)COCc1ccco1 : is its composite z-score no less than 1?
# output label 1

# input # check: composite z-score of CC(C)(C)N1C(=O)[C@H]2[C@H]3[C@H](O)C=CC(=O)[C@@H]3CC[C@H]2C1=O is greater than or equal to 1
# output label 0

# input Assess whether reported composite z-score for C[C@@H](c1ccccc1)N1C(=O)[C@H]2[C@H]3[C@H](O)[C@H](O)CC(=NO[C@@H]4O[C@H](CO)[C@@H](O)[C@H](O)[C@H]4O)[C@H]3CC[C@H]2C1=O sits at 1 or higher.
# output label 0

# input Is composite z-score for COC(=O)CC=C[C@@H](C)[C@@H](C=NOCC[C@@H]1C=C[C@H](OC(C)=O)[C@@H](COC(C)=O)O1)OC at or above 1?
# output label 1

# input Check if composite z-score >= 1 (inclusive). Item: CCOC(=O)[C@H](CC(C)C)NC(=O)CCC1CC(OC(=O)NCCc2ccc(F)cc2)CC2(CCCC(COC(=O)NCCC(C)C)O2)O1 (some centres not stated)
# output label 0

The reported numbers originate from PubChem BioAssay.
